details: human gut metagenome, 24 h, 2 µM; also: call rule not given here
readout: Bacterial Biotransformation

# count of solved cases: 6
[
  {
    "compound": "CC(Oc1c(Cl)cccc1Cl)C1=NCCN1 (stereo not drawn) [LOFEXIDINE]",
    "Bacterial Biotransformation": "Compound NOT metabolized"
  },
  {
    "compound": "Cc1ccc(-c2nc3ccc(C)cn3c2CC(=O)N(C)C)cc1 [ZOLPIDEM]",
    "Bacterial Biotransformation": "Compound NOT metabolized"
  },
  {
    "compound": "CN/C(=N/CCSCc1nc[nH]c1C)NC#N [CIMETIDINE]",
    "Bacterial Biotransformation": "Compound NOT metabolized"
  },
  {
    "compound": "COC(=O)[C@H]1[C@H]2C[C@@H]3c4[nH]c5cc(OC)ccc5c4CCN3C[C@H]2C[C@@H](OC(=O)c2cc(OC)c(OC)c(OC)c2)[C@@H]1OC [RESERPINE]",
    "Bacterial Biotransformation": "Compound NOT metabolized"
  },
  {
    "compound": "CCN1CCCC1CNC(=O)c1cc(S(N)(=O)=O)ccc1OC (stereo not drawn) [SULPIRIDE]",
    "Bacterial Biotransformation": "Compound NOT metabolized"
  },
  {
    "compound": "COc1cc2nc(N(C)CCCNC(=O)C3CCCO3)nc(N)c2cc1OC (stereo not drawn) [ALFUZOSIN]",
    "Bacterial Biotransformation": "Compound NOT metabolized"
  }
]

Using the record for NS(=O)(=O)c1cc2c(cc1Cl)N=C(CSCc1ccccc1)NS2(=O)=O [BENZTHIAZIDE] , report its Bacterial Biotransformation.
Compound NOT metabolized

# query: Bacterial Biotransformation of entry Nc1c2c(nc3ccccc13)CCCC2 [TACRINE]
Compound NOT metabolized

# get_value(readout='Bacterial Biotransformation', item= COc1ccc(CCN(C)CCCC(C#N)(c2ccc(OC)c(OC)c2)C(C)C)cc1OC (stereo not drawn) )
Compound NOT metabolized

Query (compound): Cc1nc2n(c(=O)c1CCN1CCC(c3noc4cc(F)ccc34)CC1)CCCC2O (stereo not drawn) [PALIPERIDONE] ; field requested: Bacterial Biotransformation
Compound metabolized

Tell me the measured Bacterial Biotransformation of COc1cc2nc(N3CCN(C(=O)c4ccco4)CC3)nc(N)c2cc1OC [PRAZOSIN] , please.
Compound NOT metabolized

Param item = C[C@@H]1C[C@H]2[C@@H]3CCC4=CC(=O)C=C[C@]4(C)[C@@]3(F)[C@@H](O)C[C@]2(C)[C@@]1(O)C(=O)CO [DEXAMETHASONE] ; retrieve measured Bacterial Biotransformation.
Compound NOT metabolized

# get_value(readout='Bacterial Biotransformation', item= NC(CO)(CO)CO.O=C(c1ccccc1)c1ccc2n1CCC2C(=O)O (stereo not drawn) [KETOROLAC TROMETHAMINE] )
Compound NOT metabolized

What value of Bacterial Biotransformation has been reported for the following compound? Cc1ccc(S(=O)(=O)NC(=O)NN2CCCCCC2)cc1 [TOLAZAMIDE]
Compound metabolized

Requested field: Bacterial Biotransformation. Item: OCCOCCN1CCN(C2=Nc3ccccc3Sc3ccccc32)CC1 [QUETIAPINE]
Compound NOT metabolized

Query: Bacterial Biotransformation; subject: OC(Cn1cncn1)(Cn1cncn1)c1ccc(F)cc1F [FLUCONAZOLE]
Compound NOT metabolized

// query Bacterial Biotransformation value for entry CCOC(=O)[C@H](CCc1ccccc1)N[C@H]1CCc2ccccc2N(CC(=O)O)C1=O [BENAZEPRIL]
Compound NOT metabolized

What does the data say about its Bacterial Biotransformation? Entry: CN(C)CC(c1ccc(O)cc1)C1(O)CCCCC1.O=C(O)CCC(=O)O (stereo not drawn) [DESVENLAFAXINE SUCCINATE]
Compound NOT metabolized
